# target_under_test: T1, cynomolgus CD70 recombinant protein (cynomolgus, UniProt A0A2K5WTU9 39-190)
# T1 construct: also called cyno-antigen; cynomolgus CD70 protein
# T1 sequence: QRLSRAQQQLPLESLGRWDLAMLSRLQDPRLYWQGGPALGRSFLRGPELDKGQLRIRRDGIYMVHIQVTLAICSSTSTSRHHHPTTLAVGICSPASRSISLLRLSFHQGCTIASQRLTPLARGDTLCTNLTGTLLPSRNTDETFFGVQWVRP
# run_description: ELISA, IgG titrated on coated cynomolgus CD70 recombinant protein (2 µg/ml), anti-human Fc-HRP, OD450
Reported EC50 by item:
Reply numerically in ng/mL, unit not repeated.

Some binders with known EC50 results, for comparison:
69A7 (parent antibody), full IgG (antibody, V domains shown, also called parent antibody 69A7) VH: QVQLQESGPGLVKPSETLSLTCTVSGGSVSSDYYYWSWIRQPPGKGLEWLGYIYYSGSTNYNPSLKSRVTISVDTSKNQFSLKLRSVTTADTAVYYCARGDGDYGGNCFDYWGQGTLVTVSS VL: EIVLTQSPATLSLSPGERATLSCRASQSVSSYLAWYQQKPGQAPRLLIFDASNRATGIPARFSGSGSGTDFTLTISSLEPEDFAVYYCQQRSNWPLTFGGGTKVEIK ... 10.4
2E7, full IgG (antibody, V domains shown) VH: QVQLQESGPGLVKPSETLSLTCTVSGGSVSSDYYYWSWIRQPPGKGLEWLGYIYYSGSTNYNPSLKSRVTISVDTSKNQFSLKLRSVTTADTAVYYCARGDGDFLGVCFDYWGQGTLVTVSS VL: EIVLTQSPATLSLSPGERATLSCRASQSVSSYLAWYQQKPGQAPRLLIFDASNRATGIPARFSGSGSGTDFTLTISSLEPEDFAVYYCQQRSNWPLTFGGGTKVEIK ... 4.01

Now consider the entry below.
Query block: So what's the measured EC50 for this one? 2D2, full IgG (antibody, V domains shown) VH: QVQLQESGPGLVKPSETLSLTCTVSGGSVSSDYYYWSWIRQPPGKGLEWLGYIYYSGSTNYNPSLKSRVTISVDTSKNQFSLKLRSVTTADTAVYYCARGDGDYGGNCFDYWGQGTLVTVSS VL: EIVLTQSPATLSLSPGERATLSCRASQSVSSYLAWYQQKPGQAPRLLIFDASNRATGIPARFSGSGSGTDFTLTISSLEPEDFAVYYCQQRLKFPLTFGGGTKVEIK
Result block: 4.24
